Form: system (Androgen receptor (Homo sapiens, UniProt P10275, T878A)), quantity (IC50), values below.
Please give a number only; it is taken to be in nM.

A selection of reference data follows.
INSERT INTO assay_data (molecule, experimental_system, value) VALUES
  ('CNC(=O)c1ccc([C@]2(O)CCN(c3ccc(C#N)c(Cl)c3)[C@H]2C)nc1', 'Androgen receptor (Homo sapiens, UniProt P10275, T878A)', 16),
  ('N#Cc1ccc(N2CCC(O)(c3ccccc3)C2)cc1Cl (racemic)', 'Androgen receptor (Homo sapiens, UniProt P10275, T878A)', 130),
  ('CNC(=O)c1ccc([C@]2(O)CCN(c3ccc(C#N)c(F)c3)[C@H]2C)cn1', 'Androgen receptor (Homo sapiens, UniProt P10275, T878A)', 1700),
  ('N#Cc1ccc(N2CCC(O)(Cc3ccccc3)C2)cc1Cl (stereo not given)', 'Androgen receptor (Homo sapiens, UniProt P10275, T878A)', 59),
  ('C[C@@H]1N(c2ccc(C#N)c(Cl)c2)CC[C@@]1(O)c1ccc(C(N)=O)cc1', 'Androgen receptor (Homo sapiens, UniProt P10275, T878A)', 42),
  ('CNC(=O)c1ccc([C@]2(O)CCN(c3ccc(C#N)c(Cl)c3)[C@H]2C)cn1', 'Androgen receptor (Homo sapiens, UniProt P10275, T878A)', 100),
  ('CNC(=O)c1ccc([C@]2(O)CCN(c3ccc(C#N)c(OC)c3)[C@H]2C)cn1', 'Androgen receptor (Homo sapiens, UniProt P10275, T878A)', 240),
  ('N#Cc1ccc(N2CCC(O)C2)cc1Cl (stereo not given)', 'Androgen receptor (Homo sapiens, UniProt P10275, T878A)', 30);

// map `CNC(=O)c1ccc([C@@]2(O)CCN(c3ccc(C#N)c(Cl)c3)[C@@H]2C)cn1` to recorded IC50 (system: Androgen receptor (Homo sapiens, UniProt P10275, T878A)) 97

// map `C[C@@H]1N(c2ccc(C#N)c(Cl)c2)CC[C@@]1(O)c1ccc(N2CCCC2=O)nc1` to recorded IC50 (system: Androgen receptor (Homo sapiens, UniProt P10275, T878A)) 87

// map `C[C@@H]1N(c2ccc(C#N)c(Cl)c2)CC[C@@]1(O)c1ccc(C(=O)N(C)C)nc1` to recorded IC50 (system: Androgen receptor (Homo sapiens, UniProt P10275, T878A)) 3000

// map `C[C@@H]1N(c2ccc(C#N)c(Cl)c2)CC[C@@]1(O)c1ccc(F)cc1` to recorded IC50 (system: Androgen receptor (Homo sapiens, UniProt P10275, T878A)) 8.1

// map `CNC(=O)c1ccc([C@]2(O)CCN(c3ccc(C#N)c(Cl)c3)[C@H]2C)cc1` to recorded IC50 (system: Androgen receptor (Homo sapiens, UniProt P10275, T878A)) 18

// map `CNC(=O)c1ccc([C@]2(O)CCN(c3ccc(C#N)cc3)[C@H]2C)cn1` to recorded IC50 (system: Androgen receptor (Homo sapiens, UniProt P10275, T878A)) 5300

// map N#Cc1ccc(N2CCC(O)(c3ccc(F)cc3)C2)cc1Cl (racemic) to recorded IC50 (system: Androgen receptor (Homo sapiens, UniProt P10275, T878A)) 36
